- Test system: RD-ES
- protocol_description: relative viability vs DMSO control (72 h) (fraction); higher = more viable cells
- condition_notes: 0.3704 µM
metric: relative viability
Give your answer as a number; write no unit.

Given Clc1ccc(Nc2nnc(Cc3ccncc3)c3ccccc23)cc1 [Vatalanib] , report its relative viability on RD-ES.
0.956

Determine reported relative viability for CO[C@H]1C[C@@H]2CC[C@@H](C)[C@@](O)(O2)C(=O)C(=O)N2CCCC[C@H]2C(=O)O[C@H]([C@H](C)C[C@@H]2CC[C@@H](OCCO)[C@H](OC)C2)CC(=O)[C@H](C)/C=C(\C)[C@@H](O)[C@@H](OC)C(=O)[C@H](C)C[C@H](C)/C=C/C=C/C=C/1C [Certican] ; test system: RD-ES.
0.658

Fetch value of relative viability on RD-ES for Cc1cc2c(F)c(Oc3ncnn4cc(OC[C@@H](C)O)c(C)c34)ccc2[nH]1 [Brivanib] .
0.994

Answer with relative viability of CCc1cnn2c(NCc3ccc[n+]([O-])c3)cc(N3CCCC[C@H]3CCO)nc12 [Dinaciclib] measured for RD-ES.
0.00417

Report value: relative viability, system: RD-ES, molecule: CC(C)NC[C@@H](C(=O)N1CCN(c2ncnc3c2[C@H](C)C[C@H]3O)CC1)c1ccc(Cl)cc1 [Ipatasertib]
0.743

Write down measured relative viability (RD-ES) for this molecule. COc1cc(CCc2cc(NC(=O)c3ccc(N4CC(C)NC(C)C4)cc3)n[nH]2)cc(OC)c1 (centres undefined) [AZD-4547]
0.871

Recall the reported relative viability of CC1(C)CC=C(c2nc(C3CC(C)(C)OC(C)(C)C3)ccc2NC(=O)c2nc(C#N)c[nH]2)CC1 [Edicotinib] on RD-ES and write it down.
1.01

State relative viability on RD-ES. Entry: CC(C)(C)c1nc(-c2cccc(NS(=O)(=O)c3c(F)cccc3F)c2F)c(-c2ccnc(N)n2)s1 [Dabrafenib]
0.706

Please look at O=C(Nc1nc2cccc(-c3ccc(CN4CCS(=O)(=O)CC4)cc3)n2n1)C1CC1 [Filgotinib] and tell me its recorded relative viability on RD-ES.
0.957

###

Give relative viability for every item shown.
- Tested on: RD
- protocol_description: relative viability vs DMSO control (72 h) (fraction); higher = more viable cells
- condition_notes: 0.00457 µM
Number only, no unit.

Note relative viability for the compound shown: O=C(Nc1nc2cccc(-c3ccc(CN4CCS(=O)(=O)CC4)cc3)n2n1)C1CC1 [Filgotinib]
1.1

Specify relative viability for CCN(CC)CCNC(=O)c1c(C)[nH]c(/C=C2\C(=O)Nc3ccc(F)cc32)c1C [Sunitinib] and stop.
1.13

Using known records, supply relative viability for Cc1cc2cc(Oc3ccnc(Nc4cccc(CS(=O)(=O)NCCN(C)C)c4)n3)ccc2[nH]1 [Sulfatinib]
1.12

Supply reported relative viability belonging to this compound: CN1CCN(c2ccc(C(=O)Nc3n[nH]c4ccc(Cc5cc(F)cc(F)c5)cc34)c(NC3CCOCC3)c2)CC1 [Entrectinib]
1.13

###

- Test system: SK-LMS-1
- protocol_description: relative viability vs DMSO control (72 h) (fraction); higher = more viable cells
- condition_notes: 0.04115 µM
metric: relative viability
Reply with just the number.

Specify relative viability for Cc1cccc(-c2nn3c(c2-c2ccnc4ccc(C(N)=O)cc24)CCC3)n1 and stop.
0.982

For the molecule CC(C)NC[C@@H](C(=O)N1CCN(c2ncnc3c2[C@H](C)C[C@H]3O)CC1)c1ccc(Cl)cc1 , report relative viability.
0.959

Query relative viability for O=c1sn(-c2cccc3ccccc23)c(=O)n1Cc1ccccc1
1.02

Supply recorded relative viability for Cc1ccc(Nc2nccc(N(C)c3ccc4c(C)n(C)nc4c3)n2)cc1S(N)(=O)=O here.
0.998

###

Field: relative viability. Provide a value for each of the compounds that follow.
- Test system: SYO-1
- protocol_description: relative viability vs DMSO control (72 h) (fraction); higher = more viable cells
- condition_notes: 3.333 µM

Determine from records and report relative viability for CC[C@@H]1CN(C(=O)NCC(F)(F)F)C[C@@H]1c1cnc2cnc3[nH]ccc3n12
0.764

Give the reported value of relative viability for this record: CN1CCN(c2ccc(C(=O)Nc3n[nH]c4ccc(Cc5cc(F)cc(F)c5)cc34)c(NC3CCOCC3)c2)CC1
0.529

Read the entry N#CC1(c2ccc(NC(=O)c3cccnc3NCc3ccncc3)cc2)CCCC1 and write its reported relative viability.
0.678

Please give measured relative viability of the following entry: COc1cc(CCc2cc(NC(=O)c3ccc(N4CC(C)NC(C)C4)cc3)n[nH]2)cc(OC)c1 (stereo not given)
0.408

Read off the recorded relative viability for CNC(=O)c1nnc(NC(=O)C2CC2)cc1Nc1cccc(-c2ncn(C)n2)c1OC
0.983

###

- Test system: SW684
- protocol_description: relative viability vs DMSO control (72 h) (fraction); higher = more viable cells
- condition_notes: 0.00152 µM
metric: relative viability

Note relative viability for the compound shown: O=S(=O)(c1cccc2cnccc12)N1CCCNCC1
1.02

In one line, give reported relative viability of the entry CC1(C)CC=C(c2nc(C3CC(C)(C)OC(C)(C)C3)ccc2NC(=O)c2nc(C#N)c[nH]2)CC1 .
1.16

Item O=c1sn(-c2cccc3ccccc23)c(=O)n1Cc1ccccc1 : provide relative viability
1.21

Given Cc1cccc(-c2nn3c(c2-c2ccnc4ccc(C(N)=O)cc24)CCC3)n1 , respond with its relative viability.
1.08

Input Cc1cc2c(F)c(Oc3ncnn4cc(OC[C@@H](C)O)c(C)c34)ccc2[nH]1 , output reported relative viability.
1.12

Output measured relative viability for this item: N#CC1(c2ccc(NC(=O)c3cccnc3NCc3ccncc3)cc2)CCCC1
1.06

Note down relative viability recorded for CCN1C(=O)N(c2c(F)c(OC)cc(OC)c2F)Cc2cnc3[nH]c(CN4CCOCC4)cc3c21
1.13

Give relative viability for the following compound: Clc1ccc(Nc2nnc(Cc3ccncc3)c3ccccc23)cc1
1.09

Given the compound C[C@]12O[C@H](C[C@]1(O)CO)n1c3ccccc3c3c4c(c5c6ccccc6n2c5c31)CNC4=O , write its reported relative viability.
1.16

Input CNC(=O)c1nnc(NC(=O)C2CC2)cc1Nc1cccc(-c2ncn(C)n2)c1OC , output reported relative viability.
1.18

Give me measured relative viability, please, for this compound: Cn1ncnc1[C@H]1c2n[nH]c(=O)c3cc(F)cc(c23)N[C@@H]1c1ccc(F)cc1
0.988

###

- System: KHOS-240S
- protocol_description: relative viability vs DMSO control (72 h) (fraction); higher = more viable cells
- condition_notes: 0.04115 µM
# if measured relative viability < 1: 1  # else: -1

hey, is relative viability for CNC(=O)c1nnc(NC(=O)C2CC2)cc1Nc1cccc(-c2ncn(C)n2)c1OC lower than 1 or not?
-1

Please determine if COc1cc(CCc2cc(NC(=O)c3ccc(N4CC(C)NC(C)C4)cc3)n[nH]2)cc(OC)c1 (centres undefined) [AZD-4547] is below 1 in terms of relative viability.
1

Report whether reported relative viability is lower than 1 (strictly) for CC#CC(=O)N1CCC[C@H]1c1nc(-c2ccc(C(=O)Nc3ccccn3)cc2)c2c(N)nccn12 [Acalabrutinib]
-1

Please check: relative viability for O=S(=O)(c1cccc2cnccc12)N1CCCNCC1 [Fasudil] , strictly under 1 or not?
1

Lab log: compare recorded relative viability with 1; is it strictly lower for CCN(CC)CCNC(=O)c1c(C)[nH]c(/C=C2\C(=O)Nc3ccc(F)cc32)c1C [Sunitinib] ?
-1

Please let me know if Cc1cc2c(F)c(Oc3ncnn4cc(OC[C@@H](C)O)c(C)c34)ccc2[nH]1 [Brivanib] shows relative viability below 1.
-1

###

- Tested on: SW1353
- protocol_description: standardised AUC of viability dose-response curve (72 h) (fraction (0-1)); higher = less growth inhibition (more resistant)
Please enter criterion met where standardised AUC is greater than or equal to 0.9, and criterion not met where it is lower.

Check the entry COc1cc(CCc2cc(NC(=O)c3ccc(N4CC(C)NC(C)C4)cc3)n[nH]2)cc(OC)c1 (stereo not drawn) : does standardised AUC equal or exceed 0.9?
criterion not met

Hi team, for COCCNc1cc(NC(=O)N2CCCc3cc(CN4CCN(C)CC4=O)c(C=O)nc32)ncc1C#N , is the recorded standardised AUC at or above 0.9?
criterion met

Identify whether the reported standardised AUC of the following molecule is 0.9 or greater: O=C(Nc1nc2cccc(-c3ccc(CN4CCS(=O)(=O)CC4)cc3)n2n1)C1CC1
criterion met

Could you verify whether the entry Cc1ccc(Nc2nccc(N(C)c3ccc4c(C)n(C)nc4c3)n2)cc1S(N)(=O)=O shows standardised AUC of no less than 0.9?
criterion met

Entry CO[C@H]1C[C@@H]2CC[C@@H](C)[C@@](O)(O2)C(=O)C(=O)N2CCCC[C@H]2C(=O)O[C@H]([C@H](C)C[C@@H]2CC[C@@H](OCCO)[C@H](OC)C2)CC(=O)[C@H](C)/C=C(\C)[C@@H](O)[C@@H](OC)C(=O)[C@H](C)C[C@H](C)/C=C/C=C/C=C/1C : is its standardised AUC no less than 0.9?
criterion not met

Dear colleague, could you confirm whether COc1cc(Nc2ncc(F)c(Nc3ccc4c(n3)N(COP(=O)(O)O)C(=O)C(C)(C)O4)n2)cc(OC)c1OC has standardised AUC at or above 0.9?
criterion not met

API: above_or_equal(metric=standardised AUC, cutoff=0.9) for item C[C@]12O[C@H](C[C@]1(O)CO)n1c3ccccc3c3c4c(c5c6ccccc6n2c5c31)CNC4=O
criterion not met
